# Study System: Dopamine D2L (Homo sapiens, UniProt P14416)
# Sequence (P14416 whole entry): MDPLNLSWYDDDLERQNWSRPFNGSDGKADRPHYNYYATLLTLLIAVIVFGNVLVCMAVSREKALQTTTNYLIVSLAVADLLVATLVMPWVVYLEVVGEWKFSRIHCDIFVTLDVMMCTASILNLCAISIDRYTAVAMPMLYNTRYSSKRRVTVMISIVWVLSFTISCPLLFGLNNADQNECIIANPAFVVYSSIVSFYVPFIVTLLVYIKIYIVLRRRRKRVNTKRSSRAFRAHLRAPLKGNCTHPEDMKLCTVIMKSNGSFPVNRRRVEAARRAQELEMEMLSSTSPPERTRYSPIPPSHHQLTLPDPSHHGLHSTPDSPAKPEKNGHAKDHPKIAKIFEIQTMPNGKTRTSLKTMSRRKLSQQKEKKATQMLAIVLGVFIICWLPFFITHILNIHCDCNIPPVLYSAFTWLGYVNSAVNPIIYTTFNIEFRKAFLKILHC
Quantity Measured: Ki (µM)

INSERT INTO assay_data (chem_smiles, quantity_measured, quantity_unit, observed_value) VALUES
  ('COC(=O)[C@@H](c1ccc(-c2ccccc2)cc1)[C@H]1C=CCCN1', 'Ki', 'µM', 29.4);

====

# Study System: UniProt:P34969
# Sequence (P34969 whole entry): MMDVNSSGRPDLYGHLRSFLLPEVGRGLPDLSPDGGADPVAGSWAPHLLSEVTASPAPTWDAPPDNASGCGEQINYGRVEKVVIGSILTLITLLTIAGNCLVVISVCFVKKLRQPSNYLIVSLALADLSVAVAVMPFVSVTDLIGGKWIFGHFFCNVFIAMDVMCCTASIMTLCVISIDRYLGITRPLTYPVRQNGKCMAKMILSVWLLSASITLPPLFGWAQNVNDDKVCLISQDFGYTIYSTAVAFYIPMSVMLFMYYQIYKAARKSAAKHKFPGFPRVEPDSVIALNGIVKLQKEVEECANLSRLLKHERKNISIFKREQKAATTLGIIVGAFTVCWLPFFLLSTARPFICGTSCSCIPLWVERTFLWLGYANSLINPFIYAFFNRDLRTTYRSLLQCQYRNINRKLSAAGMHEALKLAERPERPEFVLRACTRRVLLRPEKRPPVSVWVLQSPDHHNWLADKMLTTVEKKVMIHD
Quantity Measured: IC50 (µM)

INSERT INTO assay_data (chem_smiles, quantity_measured, quantity_unit, observed_value) VALUES
  ('COC(=O)[C@@H](c1ccc(-c2ccccc2)cc1)[C@H]1C=CCCN1', 'IC50', 'µM', 25.8);

====

# Study System: Serotonin 5HT2A (Homo sapiens)
pIC50: −log10 of the molar value.
Quantity Measured: pIC50

INSERT INTO measurements (molecule, observed_value) VALUES
  ('COC(=O)[C@@H](c1ccc(-c2ccccc2)cc1)[C@H]1C=CCCN1 [Compound 2]', 6.10);

Data credit: patent US7851487B2
